FYI, the data here is from ChEMBL document CHEMBL1129236.

experimental.details: pKa was reported
Type: physicochemical
Catalogue of compounds with associated pKa
Field format: numeric only.

compound=c1ccc(CCC2CNCCNCCCNCCNC2)nc1 reported_value=5.32

Okay, next one:
Return reported pKa; argument: Oc1cccnc1C1CCNCCNCCCNCCN1 (stereo not drawn) 3.6

---

Catalogue of compounds with associated CC50
Test system: MT4
experimental.details: Concentration required to reduce the viability of mock infected cells by 50%
Format: functional
measurement.conditions: Homo sapiens

Past entries and their recorded results:
given_smiles=c1ncc(CN2CCCNCCNCCCNCC2)nc1CN1CCCNCCNCCCNCC1 measured_parameter=CC50 reported_value="> 203 µM"
given_smiles=c1ccc2c(CN3CCCNCCNCCCNCC3)cc(CN3CCCNCCNCCCNCC3)nc2c1 measured_parameter=CC50 reported_value="> 419 µM"
given_smiles=c1ccc(-c2cc(CN3CCCNCCNCCCNCC3)cc(CN3CCCNCCNCCCNCC3)c2)cc1 measured_parameter=CC50 reported_value="> 198 µM"
given_smiles=Nc1cc(CN2CCCNCCNCCCNCC2)cc(CN2CCCNCCNCCCNCC2)c1 measured_parameter=CC50 reported_value="> 194 µM"

Okay, next one:
Return reported CC50; argument: `c1cc(CN2CCCNCCNCCCNCC2)cc(CN2CCCNCCNCCCNCC2)c1` > 421 µM
